Reported values of IC50 for individual entries
system tested: human MRGPRX2 (Homo sapiens)
Construct: expressed in transfected cells; host or cells: FlpIn TRex HEK293 (TRex-MRGPRX2-HEK), doxycycline-induced
Sequence (Q96LB1 1-330): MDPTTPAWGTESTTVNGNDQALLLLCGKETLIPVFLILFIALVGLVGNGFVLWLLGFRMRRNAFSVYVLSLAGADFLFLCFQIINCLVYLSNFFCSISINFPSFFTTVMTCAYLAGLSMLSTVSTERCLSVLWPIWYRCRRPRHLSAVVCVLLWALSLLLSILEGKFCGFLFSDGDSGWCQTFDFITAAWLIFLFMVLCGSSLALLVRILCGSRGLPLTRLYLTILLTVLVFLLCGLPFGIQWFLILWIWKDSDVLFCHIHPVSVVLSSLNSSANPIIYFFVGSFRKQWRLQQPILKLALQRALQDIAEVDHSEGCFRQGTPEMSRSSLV
assay summary: MRGPRX2 Activity Assay (IP-1 HTRF, antagonist mode)
Assay type: cell-based
measurement setup: FlpIn TRex-MRGPRX2-HEK293 cells; versus 1 μM Cortistatin-14 agonist; 30 minutes preincubation
Method: FlpIn TRex-MRGPRX2-HEK293 cells (herein TRex-MRPGRX2-HEK) stably transfected to express human MRGPRX2 were maintained at 37° C. with 5% CO2 and grown in DMEM supplemented with 10% FBS, 1% L-Glutamate, 1% penicillin/streptomycin, 100 ug/mL Hygromycin B, and 15 ug/mL Blasticidin. […] Antagonist equilibrium was established with 30 minutes preincubation, followed by no wash, direct addition, and stimulation of agonist for 1 hour at 37° C./5% CO2. […] The plate was read on an EnVision XCite plate reader. […]
Write the value in nM as a bare number.

Before answering, review these 5 worked examples.
Cc1nc(NC(=O)[C@@H](C)N2CCC(F)(F)CC2)cn1Cc1cc(F)cc(F)c1 (single isomer, unassigned) ... 124
Cc1nc(NC(=O)[C@H](C)N2CCOCC2)cn1Cc1cc(F)cc(F)c1 (single isomer, unassigned) ... 700
C[C@@H](C(=O)Nc1cn2c(n1)CC[C@@H]2c1cc(F)cc(F)c1)N1CCC(F)(F)[C@H](c2cc[n+]([O-])c(CN3CCC(F)(F)CC3)c2)C1 (single isomer, unassigned) ... 31
C[C@@H](C(=O)Nc1cn(Cc2cccc(F)c2F)cn1)N1CCC(F)(F)[C@@H](c2cc[n+]([O-])cc2)C1 ... 53
C[C@@H](C(=O)Nc1cn(Cc2cc(F)cc(C#N)c2)cn1)N1CCC(F)(F)[C@@H](c2cc[n+]([O-])cc2)C1 ... 783

# get_value(readout='IC50', item= C[C@H](C(=O)Nc1cn(Cc2ccc(F)cc2F)c(C(F)(F)F)n1)N1CCC(F)(F)[C@@H](c2cc[n+]([O-])cc2)C1 (single isomer, unassigned) )
9290

* * *

system tested: human MRGPRX2 (Homo sapiens, UniProt Q96LB1)
Construct: expressed in transfected cells; host or cells: FlpIn TRex HEK293 (TRex-MRGPRX2-HEK), doxycycline-induced
Sequence (Q96LB1 1-330): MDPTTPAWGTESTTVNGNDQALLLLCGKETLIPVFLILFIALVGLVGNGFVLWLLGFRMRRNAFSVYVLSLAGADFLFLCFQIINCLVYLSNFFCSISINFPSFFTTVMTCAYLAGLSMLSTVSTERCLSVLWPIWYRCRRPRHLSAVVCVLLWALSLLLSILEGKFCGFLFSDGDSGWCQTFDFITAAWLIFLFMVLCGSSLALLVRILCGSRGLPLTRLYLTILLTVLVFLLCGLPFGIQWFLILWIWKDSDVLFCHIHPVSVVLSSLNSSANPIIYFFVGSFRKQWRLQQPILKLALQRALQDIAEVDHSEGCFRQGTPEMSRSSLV
assay summary: MRGPRX2 Activity Assay (IP-1 HTRF, antagonist mode)
Format: cell-based
measurement setup: FlpIn TRex-MRGPRX2-HEK293 cells; versus 1 μM Cortistatin-14 agonist; 30 minutes preincubation
quantity kind: IC50 (nM)
Write the value in nM as a bare number.

C[C@@H](C(=O)Nc1cn(Cc2cc(F)c(F)c(F)c2F)cn1)N1CCC(F)(F)[C@@H](c2cc[n+]([O-])cc2)C1 [Compound 32] ... 104
Cc1nc(NC(=O)[C@H](C)N2CCC(F)(F)CC2)cn1Cc1cc(F)cc(F)c1 (single isomer, unassigned) [Compound 21] ... 3.3

// next entry
Identify the measured IC50 of C[C@@H](C(=O)Nc1cn(Cc2cccc(Cl)c2F)cn1)N1CCC(F)(F)[C@@H](c2cc[n+]([O-])cc2)C1 [Compound 64] for human MRGPRX2 (Homo sapiens, UniProt Q96LB1).
78
